Target: T1, IL-31-CEE: purified, recombinant human IL-31 fused at the C-terminal with a peptide consisting of the … (human, UniProt Q6EBC2 24-164)
T1 sequence: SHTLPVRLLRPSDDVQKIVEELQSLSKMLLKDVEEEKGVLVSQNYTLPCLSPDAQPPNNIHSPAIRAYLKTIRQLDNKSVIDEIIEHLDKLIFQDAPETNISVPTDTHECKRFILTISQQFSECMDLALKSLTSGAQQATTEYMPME
Test: cell-based or functional assay
Recorded endpoint: IC50 (pM), cell-based neutralization (luciferase), IL-31-CEE at 300 pg/mL
Express your answer in pM, writing the number without its unit.

Consider the reported IC50 (pM), cell-based neutralization (luciferase), IL-31-CEE at 300 pg/mL for these binders:
mouse anti-human IL-31 mAb from clone 292.51.5.2 (antibody, mouse IgG1, V domains shown, Mouse IgG1; assays used first round clone 292.51.5) VH: EVQLVESGGDLVKPGGSLKLSCAASGFTFSSFVMSWVRQSPEKRLEWVATINSGGYYSFHPDSVKGRFTISRDNAKNTLYLQMSSLRSEDTAIYYCARQEGWSSAYFSYWGQGTLVTVSA VL: DIVMTQSPSSLAMSVGQKVTMICKSSQSLLNSSNQKNYLAWYQQKPGHSPKLLVSFTSTRESGVPDRFIGSGSGTDFTLTITNMQAEDLADYFCQQHYDTPYTFGGGTKLEIR :: 43.2
mouse anti-human IL-31 mAb from clone 292.12.3.1 (ATCC Patent Deposit Designation PTA-6815) (antibody, mouse IgG1, V domains shown, Mouse IgG1, kappa; assays used supernatant of first round clone 292.12.3) VH: QVQLQQSGAELARPGASVNLSCKASGYTLTRYWMQWVKQRPGQGLEWIGAIYPGDGDTRYSQKFKGKATLTADKSSSTAYMQLNNLASEDSAVYYCAFPDGYYAAPYGMDYWGQGTSVTVSS VL: DIQMTQSPASLSASVGETVTITCRASGNIHNYLAWYQQKQGKSPQLLVYNAKTLADGVPSRFSGSRSETQYSLKINSLQPEDFGSYYCQHFWSTPWTFGGGTKLEIK :: 7.98

Please turn your attention to the following entry.
input: Supply measured IC50 (pM), cell-based neutralization (luciferase), IL-31-CEE at 300 pg/mL of mouse anti-human IL-31 mAb from clone 292.72.3.1 (ATCC Patent Deposit Designation PTA-6816) (antibody, mouse IgG2a, V domains shown, Mouse IgG2a; assays used first round clone 292.72.3) VH: QVQVQQSGAELARPGASVKLSCKASGYTLTRYWMQWVKQRPGQGLEWIGAIYPRDGDTRYSQKFKGKATLTADKSSTTAYMQLSSLASEDSAVYYCAYPDGSYAAPNGMEYWGQGSSVTVSS VL: DIQMSQSPASLSASVGETVTITCRASGSIHNYLAWYQQKQGKSPQLLVYNAETLADGVPSRFSGSGSGTQYSLKISSLQPEDFGTYYCQHFWITPWTFGGGTKLEIK in your reply.
output: 13.3
